Tested on: LOC_OS04G35114-cb001
method.notes: thermal shift delta Tm vs DMSO control; higher = stronger stabilization (binding);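 note: purified Escherichia coli-expressed rice kinase domain construct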
applied.conditions: 12.5 µM; protein concentration 2 µM
Assign thermal shift delta Tm to each entry below.
One number for each entry, in °C.

Examples with their reported thermal shift delta Tm follow.
molecule	target.system	reported
CC1(COc2ccc3c(c2)ncn3-c2ccc3cccc(N4CCC(N)CC4)c3n2)COC1	LOC_OS04G35114-cb001	9.74
Cc1cc(C(C)Nc2ccccc2)c2nc(N3CCOCC3)cc(=O)n2c1 (centres undefined)	LOC_OS04G35114-cb001	0.33
C#Cc1cccc(Nc2ncnc3cc4c(cc23)OCCOCCOCCO4)c1	LOC_OS04G35114-cb001	4.38
O=C1NC(=O)[C@@H](c2cn3c4c(cccc24)CCC3)[C@@H]1c1c[nH]c2ccccc12 [Tivantinib (ARQ 197)]	LOC_OS04G35114-cb001	0.51
Cc1cc(CS(=O)(=O)c2ccccc2)cc(OCc2ccc(CN3CCC[C@@H]3CO)cc2)c1	LOC_OS04G35114-cb001	0.57

Would you mind giving thermal shift delta Tm for every molecule in the list below?
1. COc1ccc2c(Oc3ccc(NC(=O)c4c(C)n(CC(C)(C)O)n(-c5ccccc5)c4=O)nc3)ccnc2c1
2. CC1(C)OCCn2c1nc1c(N3CCOCC3)nc(-c3cnc(N)nc3)nc12
3. CN(C)Cc1cccc(N/C(=C2\C(=O)Nc3cc(C(N)=O)ccc32)c2ccccc2)c1

1: 0.36; 2: 0.39; 3: 3.48

// returns reported thermal shift delta Tm for input COc1nccnc1NS(=O)(=O)c1ccc(NC(=O)/C=C/c2ccc([N+](=O)[O-])s2)cc1 [Necrosulfonamide]
1.14

---

Assign thermal shift delta Tm to each entry below.
System: LOC_OS01G52050-cb004
Sequence (as listed by the source): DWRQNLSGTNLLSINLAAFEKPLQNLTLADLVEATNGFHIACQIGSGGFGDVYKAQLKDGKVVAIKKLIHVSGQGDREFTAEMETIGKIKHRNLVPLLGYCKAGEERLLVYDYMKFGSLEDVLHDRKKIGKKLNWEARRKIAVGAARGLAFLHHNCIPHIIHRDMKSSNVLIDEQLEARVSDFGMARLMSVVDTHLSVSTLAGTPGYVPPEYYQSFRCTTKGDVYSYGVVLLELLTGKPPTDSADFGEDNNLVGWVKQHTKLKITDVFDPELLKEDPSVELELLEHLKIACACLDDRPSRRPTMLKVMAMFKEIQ
method.notes: thermal shift delta Tm vs DMSO control; higher = stronger stabilization (binding)
applied.conditions: 12.5 µM; protein concentration 2 µM
Answers are plain numbers, in °C.

Would you mind giving thermal shift delta Tm for every molecule in the list below?
1. COc1cc2ncnc(Nc3ccc(F)c(Cl)c3)c2cc1OCCCN1CCOCC1 [Gefitinib (ZD1839)]
2. O=C(NC(NC(=S)Nc1ccc(F)c([N+](=O)[O-])c1)C(Cl)(Cl)Cl)C(c1ccccc1)c1ccccc1 (centres undefined)
3. CN1CC[C@H](c2c(O)cc(O)c3c(=O)cc(-c4ccccc4Cl)oc23)[C@H](O)C1 [Flavopiridol (Alvocidib)]
4. COc1cc2c(c(OC)c1OC)-c1c(cc3c(c1OC)OCO3)CC(C)C(C)C2 (centres undefined) [Schisandrin B (Sch B)]

[0.77, 3.03, 0.8, -0.05]

---

Assign thermal shift delta Tm to each entry below.
System: LOC_OS04G41100-cb001
Sequence (as listed by the source): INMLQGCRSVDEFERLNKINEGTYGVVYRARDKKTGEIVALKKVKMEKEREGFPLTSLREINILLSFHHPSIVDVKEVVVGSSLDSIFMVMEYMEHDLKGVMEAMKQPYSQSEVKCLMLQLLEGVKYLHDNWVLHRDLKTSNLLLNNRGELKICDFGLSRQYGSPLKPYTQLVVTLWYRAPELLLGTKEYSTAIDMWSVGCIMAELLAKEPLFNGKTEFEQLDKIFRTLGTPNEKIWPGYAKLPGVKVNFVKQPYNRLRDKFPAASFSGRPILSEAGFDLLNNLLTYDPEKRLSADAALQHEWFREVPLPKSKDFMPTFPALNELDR
method.notes: thermal shift delta Tm vs DMSO control; higher = stronger stabilization (binding)
applied.conditions: 12.5 µM; protein concentration 2 µM
Give bare numbers, in °C.

COc1ccc(C(=O)Nc2sc3c(c2C(N)=O)CCCC3)cc1OC 0.28
CCN(CC)CCNC(=O)c1c(C)[nH]c(/C=C2\C(=O)Nc3ccc(-c4csc(-c5ccccc5)n4)cc32)c1C 0.78
COc1ccc(CNC(=O)Nc2ncc([N+](=O)[O-])s2)cc1 0.59
Cc1cnc(NC(=O)Nc2cc(Br)c(C)cc2OC[C@@H]2CNCCO2)cn1 0.37
CN1CCN(c2nc(C3=C(c4c[nH]c5ccccc45)C(=O)NC3=O)c3ccccc3n2)CC1 0.51

Would you mind giving thermal shift delta Tm for every compound in the list below?
1. CCn1cc(-c2ccnc3[nH]c(-c4cccc(CN(C)C)c4)cc23)c(-c2ccc(NC(=O)N(C)C)cc2)n1
2. C[C@@H]1COCCN1c1cc(=O)n2c(n1)N(Cc1cncc(Cl)c1)[C@H](C(F)(F)F)CC2
3. O=C(O)c1ccc2c3c1cccc3c(=O)n1c3ccccc3nc21
4. NC1(c2ccc(-c3nc4ccn5c(=O)[nH]nc5c4cc3-c3ccccc3)cc2)CCC1

[1.22, 0.39, 1.19, 0.57]

---

System: LOC_OS01G52050-cb004
method.notes: thermal shift delta Tm vs DMSO control; higher = stronger stabilization (binding)
applied.conditions: 12.5 µM; protein concentration 2 µM
Assign thermal shift delta Tm to each entry below.
One number for each entry, in °C.

Examples with their reported thermal shift delta Tm follow.
molecule	target.system	thermal shift delta Tm, °C
Cc1cc([C@@H](C)Nc2ccccc2C(=O)O)c2nc(N3CCOCC3)cc(=O)n2c1	LOC_OS01G52050-cb004	0.43
CS(=O)(=O)N1CCN(Cc2cc3nc(-c4cccc5[nH]ncc45)nc(N4CCOCC4)c3s2)CC1	LOC_OS01G52050-cb004	-0.11
COc1ccc(-c2cc3nccn3c(Nc3ncccc3C(N)=O)n2)cc1OC	LOC_OS01G52050-cb004	2.44
O=C(O[C@@H]1Cc2c(O)cc(O)cc2O[C@@H]1c1cc(O)c(O)c(O)c1)c1cc(O)c(O)c(O)c1 [(-)-Epigallocatechin Gallate]	LOC_OS01G52050-cb004	2.23
FC(F)c1nc2ccccc2n1-c1nc(N2CCOCC2)nc(N2CCOCC2)n1	LOC_OS01G52050-cb004	0.72
COc1ccc(-c2ccc3ncc4c(c3c2)n(-c2ccc(N3CCNCC3)c(C(F)(F)F)c2)c(=O)n4C)cn1	LOC_OS01G52050-cb004	4.2

Would you mind giving thermal shift delta Tm for every molecule in the list below?
1. COc1cc(Nc2ncc3c(n2)-c2ccc(Cl)cc2C(c2c(F)cccc2OC)=NC3)ccc1C(=O)O
2. C[C@@H](N)[C@H]1CC[C@H](C(=O)Nc2ccncc2)CC1

0.48
-0.08

---

Assign thermal shift delta Tm to each entry below.
Tested on: LOC_OS01G63280-cb003
method.notes: thermal shift delta Tm vs DMSO control; higher = stronger stabilization (binding)
applied.conditions: 12.5 µM; protein concentration 2 µM
Give bare numbers, in °C.

compound	parameter.measured	reported
COc1cc2ncnc(Nc3cccc(Cl)c3)c2cc1OC	thermal shift delta Tm	0.95
O=C(Nc1c[nH]nc1-c1nc2ccc(CN3CCOCC3)cc2[nH]1)NC1CC1	thermal shift delta Tm	5.34
C=CC(=O)Nc1ccc(CN2C(=O)N(c3cc(OC)cc(OC)c3)Cc3cnc(Nc4ccc(N5CCN(C)CC5)cc4)nc32)cc1	thermal shift delta Tm	0.9
C#Cc1cccc(Nc2ncnc3cc(OCCOC)c(OCCOC)cc23)c1	thermal shift delta Tm	-0.09
O=C(O)CCC(=O)Nc1ccc(Br)cn1	thermal shift delta Tm	0.52

Would you mind giving thermal shift delta Tm for every compound in the list below?
1. N#C/C(=C(/N)Sc1ccc(N)cc1)c1ccccc1C(F)(F)F
2. CC(C)NC[C@@H](C(=O)N1CCN(c2ncnc3c2[C@H](C)C[C@H]3O)CC1)c1ccc(Cl)cc1
3. Oc1ccc(-c2nc(-c3ccc(F)cc3)c(-c3ccncc3)[nH]2)cc1

[-0.09, 0.25, 0.47]

Would you mind giving thermal shift delta Tm for every compound in the list below?
1. c1cncc(CN2CCC(n3ncc4c(N5CCOCC5)nc(-c5ccc6[nH]ccc6c5)nc43)CC2)c1
2. CCN(CC)CCNC(=O)c1c(C)[nH]c(/C=C2\C(=O)Nc3ccc(-c4csc(-c5ccccc5)n4)cc32)c1C
3. C=CC(=O)Nc1cccc(Nc2nc(Nc3ccc(OCCOC)cc3)ncc2F)c1

[0.09, 0.21, 0.22]

Would you mind giving thermal shift delta Tm for every compound in the list below?
1. CCN(CC)CCNC(=O)c1c(C)[nH]c(/C=C2\C(=O)Nc3ccc(F)cc32)c1C [Sunitinib]
2. CCS(=O)(=O)N1CCN(c2ccc(Nc3ncc(C(N)=O)c(NC4CC4)n3)cc2)CC1
3. O=c1cc(N2CCOCC2)oc2c1ccc1ccccc12
4. CC(=O)c1c(C)c2cnc(Nc3ccc(N4CCNCC4)cn3)nc2n(C2CCCC2)c1=O
5. CCS(=O)(=O)c1cccc(-c2cc(C(=O)NC3CCN(C)CC3)c(C)c3[nH]c4ncc(C)cc4c23)c1
6. O=S(=O)(NCCNC/C=C/c1ccc(Br)cc1)c1cccc2cnccc12
7. Cc1ncc(CCCN(C)C)cc1Nc1ncc2c(n1)-c1ccc(C(F)(F)F)cc1NC(=S)C2

1. 0.49
2. 1.68
3. 0.17
4. -0.12
5. -0.02
6. 0.58
7. 0.8

---

Test system: LOC_OS01G02750-cb003
method.notes: thermal shift delta Tm vs DMSO control; higher = stronger stabilization (binding)
applied.conditions: 12.5 µM; protein concentration 2 µM
parameter.measured: thermal shift delta Tm (°C)
Answers are plain numbers, in °C.

Examples with their reported thermal shift delta Tm follow.
compound	parameter.measured	reported
COc1ccc(-c2cc3nccn3c(Nc3ncccc3C(N)=O)n2)cc1OC	thermal shift delta Tm	1.45
O=c1cc(N2CCOCC2)oc2c1ccc1ccccc12	thermal shift delta Tm	2.24

Would you mind giving thermal shift delta Tm for every compound in the list below?
1. CN(c1ccccc1CNc1nc(Nc2ccc3c(c2)CC(=O)N3)ncc1C(F)(F)F)S(C)(=O)=O
2. Cc1cc2c(F)c(Oc3ncnn4cc(OC[C@@H](C)O)c(C)c34)ccc2[nH]1
3. CC(C)c1cnn2c(NCc3ccccc3-n3cccn3)nc(OC3CCCNC3)nc12 (stereo not given)

1. 7.01
2. 0.24
3. 1.24

src = the supplement of paper PMC9694430
